Tgt: recombinant human TFPI (tissue factor pathway inhibitor) (human, UniProt P10646 29-304)
Assay summary: cell-based or functional assay
Measured property: % of Normalized, TF/FVIIa/FX complex assay (FX 5 nM), Ab 100 nM (%)
Lab book: enter the figure in %, no units written.

The examples below pair each entry with its known result.
[[record]]
binder = "clone 1023 (antibody, V domains shown, scFv on yeast at selection; human IgG4/kappa IgG as purified) VH: EVQLVESGGGLVKPGGSLRLSCAASGFTFSSYAMNWVRQAPGKGLEWVGTITTGGSYTYYADSVDGRFTISRDNAKNSLYLQMNSLRAEDTAVYYCARQDGNFLMDYWGQGTLVTVSS VL: DVVMTQTPLSLPVTLGQPASISCKSSQSLLDIDGKTYLNWLQQRPGQSPKRLIYLVSKLDSGVPDRFTGSGSGTDFTLKISRVEAEDVGVYYCWQGTHFPFTFGQGTKVEIKR"
measured_result = 100

[[record]]
binder = "clone 8 (antibody, V domains shown) VH: EVQLVESGGGLVKPGGSLRLSCAASGFTFSSYAMNWVRQAPGKGLEWVSTITTGGSYTYYADSVEGRFTISRDNAKNSLYLQMNSLRAEDTAVYYCARQDGNFLMDYWGQGTLVTVSS VL: DVVMTQTPLSLPVTLGQPASISCKSSPSLLDVDGKTYLNWLQQRPGQSPKRLIYLVSKLDSGVPDRFTGSGSGTDFTLKISRVEAEDVGVYYCWQGTHFPFTFGQGTKVEIKR"
measured_result = 103


[Q] // % of Normalized, TF/FVIIa/FX complex assay (FX 5 nM), Ab 100 nM lookup, key: clone 3 (antibody, V domains shown) VH: EVQLVESGGGLVKPGGSLRLSCAASGFTFSSYAMNWVRQAPGKGLEWVGTITTGGSHTYYADSVDGRFTISRDNAKNSLYLQMNSLRAEDTAVYYCARQDGNFLMDYWGQGTLVTVSS VL: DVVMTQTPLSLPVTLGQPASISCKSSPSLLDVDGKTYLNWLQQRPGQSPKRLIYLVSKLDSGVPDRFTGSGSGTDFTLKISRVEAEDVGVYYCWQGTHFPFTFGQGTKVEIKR
[A] 104

[Q] // % of Normalized, TF/FVIIa/FX complex assay (FX 5 nM), Ab 100 nM lookup, key: clone 2 (antibody, V domains shown) VH: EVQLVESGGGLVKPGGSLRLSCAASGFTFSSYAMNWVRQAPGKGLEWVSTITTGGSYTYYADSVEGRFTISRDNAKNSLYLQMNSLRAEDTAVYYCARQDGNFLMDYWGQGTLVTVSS VL: DVVMTQTPLSLPVTLGQPASISCKSSPSLLDIDGKTYLNWLQQRPGQSPKRLIYLVSKLDSGVPDRFTGSGSGTDFTLKISRVEAEDVGVYYCWQGTHFPFTFGQGTKVEIKR
[A] 103
